Ref: the Human Domainome abundance scans (Beltran et al. 2025)

B1: Poly(rC)-binding protein 1, residues 278 to 350; numbered along this chain, Q15365 (parent)
chain: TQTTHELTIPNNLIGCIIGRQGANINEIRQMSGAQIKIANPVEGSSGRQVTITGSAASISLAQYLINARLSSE

Variants of: B1
Test: abundance fitness (aPCA) (normalised: wild type 0, dead -1); higher = more abundant; growth selection in yeast, the domain comes from the species named
Details: Homo sapiens
Each entry falls in a class defined on abundance fitness; the bands are low-valued = under -0.2, mid-valued = from -0.2 up to -0.02, high-valued = -0.02 and over

* R29G | mid-valued
* G19L | low-valued
* N67I | mid-valued
* C16R | high-valued
* N11F | mid-valued
* I18N | mid-valued
* S72R | high-valued
* S55T | high-valued
* T4N | mid-valued
* A68V | mid-valued
* A62K | low-valued
* T4W | low-valued
* A56I | mid-valued
* A56G | mid-valued
* V42E | high-valued
* I59M | low-valued
* A57D | high-valued
* I36Q | low-valued
* N40C | mid-valued
* A34R | low-valued
* G22E | high-valued
* R20V | mid-valued
* S58G | low-valued
* R20F | high-valued
* S45T | high-valued
* I25R | low-valued
* N67W | low-valued
* E43F | mid-valued
* I36L | low-valued
* T1S | high-valued
* A39C | mid-valued
* N24M | high-valued
* C16F | mid-valued
* T3Q | high-valued
* A23E | high-valued
* T8C | high-valued
* L7C | low-valued
* S71H | low-valued
* R20G | mid-valued
* I9Q | low-valued
* I14V | mid-valued
* N12H | high-valued
* Q35N | high-valued
* I18Q | low-valued
* S32M | low-valued
* T8L | mid-valued
* E27S | mid-valued
* I14M | mid-valued
* T8D | high-valued
* V50C | mid-valued
* T1M | high-valued
* L13E | mid-valued
* M31Q | high-valued
* K37A | mid-valued
* A23I | mid-valued
* R69C | low-valued
* V42K | high-valued
* C16Q | high-valued
* S58V | low-valued
* A39I | mid-valued
* R29Q | high-valued
* Q35L | mid-valued
* S46N | high-valued
* V50Y | low-valued
* K37T | high-valued
* T1W | low-valued
* N26G | low-valued
* I17Y | low-valued
* Q2Y | high-valued
* T8A | mid-valued
* Q35A | mid-valued
* L13K | high-valued
* S58L | low-valued
* R48E | low-valued
* E73R | high-valued
* I14E | low-valued
* Q30N | high-valued
* A23D | mid-valued
* S71Q | mid-valued
* L7I | high-valued
* A23N | mid-valued
* R69T | mid-valued
* S58W | low-valued
* S55F | low-valued
* T8E | high-valued
* S72G | mid-valued
* C16T | high-valued
* G19H | low-valued
* S58I | low-valued
* I9W | low-valued
* I36H | high-valued
